Data credit: patent US10428030B2

Test description: Rotorod (ip), mouse
Measurement setup: in vivo, mice
Measured parameter: ED50 at 0.5 hours

Asked: Name the reported ED50 at 0.5 hours value associated with the compound "O=C1COc2cc(OCc3ccc(OC(F)F)cc3)ccc2N1"
Given back: > 500 mg/kg

* * *

Test description: Fixed speed rotorod, gross motor function (rat)
Measurement setup: male, Sprague-Dawley, in vivo, po
Give ED50 at 4 hours for every item shown.

| Compound | Measured parameter | Result |
| --- | --- | --- |
| O=C1COc2cc(OCc3ccc(OC(F)F)cc3)ccc2N1 [Compound I(B)] | ED50 at 4 hours | > 500 mg/kg |

Here is another compound to look at.
Asked: Name the reported ED50 at 4 hours value associated with the compound O=C1Nc2ccc(OCc3ccccc3)cc2OC1(F)F [I(D)]
Given back: > 120 mg/kg
